molecular target: Cannabinoid receptor 1 (Homo sapiens, UniProt P21554); assay: Activity at hemagglutinin-tagged human CB1 receptor expressed in HEK293 cells assessed as effect on forskolin-induced cAMP accumulation after 5 mins in presence of CP55,940 by cAMP BRET assay; type: functional, cell-based
Sequence (P21554 whole entry): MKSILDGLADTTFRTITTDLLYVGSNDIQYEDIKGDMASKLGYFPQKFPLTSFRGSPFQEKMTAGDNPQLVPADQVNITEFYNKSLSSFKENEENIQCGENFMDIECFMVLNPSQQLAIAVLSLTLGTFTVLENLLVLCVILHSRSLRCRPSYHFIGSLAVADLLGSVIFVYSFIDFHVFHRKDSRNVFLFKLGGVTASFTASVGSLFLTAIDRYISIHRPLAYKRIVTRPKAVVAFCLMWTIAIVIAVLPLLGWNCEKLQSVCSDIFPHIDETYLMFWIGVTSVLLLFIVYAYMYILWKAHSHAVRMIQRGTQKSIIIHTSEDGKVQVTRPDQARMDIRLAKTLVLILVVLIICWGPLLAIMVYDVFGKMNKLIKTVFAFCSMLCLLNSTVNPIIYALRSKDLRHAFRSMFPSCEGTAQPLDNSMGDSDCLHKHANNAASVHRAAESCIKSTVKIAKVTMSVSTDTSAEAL
Measurement name: EC50 (µM)

Some compounds with recorded EC50:
- Entry smiles: "CCc1c(C(=O)NCCc2ccc(N3CCCCC3)cc2)[nH]c2ccc(Cl)cc12"
  Measurement name: "EC50"
  Test result: 10.6
- Entry smiles: "CCc1c(C(=O)NCCc2ccc([N+](=O)[O-])cc2)[nH]c2ccc(Cl)cc12"
  Measurement name: "EC50"
  Test result: 3.59

I: CCc1c(C(=O)NCCc2ccc(Cl)cc2)[nH]c2ccc(Cl)cc12
II: CCc1c(C(=O)NCCc2ccc(N(C)C)cc2)[nH]c2ccc(Cl)cc12
Data request: From the items above, decide which of I and II has the lower EC50 reading. Write the label of whichever entry you select.
Data returned: II
(II: 3.43 µM, I: 8.18 µM)

###

target: Cannabinoid receptor 1 (Homo sapiens, UniProt P21554); test: Allosteric modulator activity at hemagglutinin-tagged human CB1 receptor expressed in HEK293 cells assessed as effect on CP55,940-induced inhibition of forskolin-induced cAMP accumulation by kinetic cAMP assay; assay type: functional, cell-based
Activity calls are given as the source filed them. No cut-off for these calls is given here.
Please answer using one outcome listed in yes for active, no for inactive

- Compound: "CCc1c(C(=O)OCCc2ccc(NC)cc2)[nH]c2ccc(Cl)cc12"
  Category label: "yes"
- Compound: "CCc1c(C(=O)NCCc2ccc([N+](=O)[O-])cc2)[nH]c2ccc(Cl)cc12"
  Category label: "yes"
- Compound: "CCc1c(C(=O)NCCc2ccc(N3CCCCC3)cc2)[nH]c2ccc(Cl)cc12"
  Category label: "yes"

Data request: Given CC(O)c1c(C(=O)NCCc2ccc(N3CCCCC3)cc2)[nH]c2ccc(Cl)cc12 (stereo not given) , state the outcome it received in this test.
Data returned: yes

Data request: Given CCc1c(C(=O)NCCc2ccc(N)cc2)[nH]c2ccc(Cl)cc12 , state the outcome it received in this test.
Data returned: no

Data request: Given CCc1c(C(=O)NCCc2ccc(C)cc2)[nH]c2ccc(Cl)cc12 , state the outcome it received in this test.
Data returned: yes

Data request: Given CCc1c(C(=O)NCCc2ccc(N(C)C)cc2)[nH]c2ccc(Cl)cc12 , state the outcome it received in this test.
Data returned: yes

Data request: Given O=C(NCCc1ccc([N+](=O)[O-])cc1)c1cc2cc(Cl)ccc2[nH]1 , state the outcome it received in this test.
Data returned: yes

Data request: Given CCc1c(C(=O)NCCc2ccc(N3CCCC3)cc2)[nH]c2ccc(Cl)cc12 , state the outcome it received in this test.
Data returned: no

Data request: Given O=C(NCCc1ccc(Cl)cc1)c1cc2cc(Cl)ccc2[nH]1 , state the outcome it received in this test.
Data returned: no

###

target: Cannabinoid receptor 1 (Homo sapiens, UniProt P21554); assay: Activity at hemagglutinin-tagged human CB1 receptor expressed in HEK293 cells assessed as effect on forskolin-induced cAMP accumulation in presence of CP55,940 by cAMP BRET assay; format: functional, cell-based; settings: hek293
Measurement name: EC50

Data request: Need EC50, item CCc1c(C(=O)OCCc2ccc(NC)cc2)[nH]c2ccc(Cl)cc12
Data returned: < 10 µM
